STUDY SYSTEM: Receptor-type tyrosine-protein phosphatase C (Homo sapiens, UniProt P08575)
Sequence (P08575 whole entry): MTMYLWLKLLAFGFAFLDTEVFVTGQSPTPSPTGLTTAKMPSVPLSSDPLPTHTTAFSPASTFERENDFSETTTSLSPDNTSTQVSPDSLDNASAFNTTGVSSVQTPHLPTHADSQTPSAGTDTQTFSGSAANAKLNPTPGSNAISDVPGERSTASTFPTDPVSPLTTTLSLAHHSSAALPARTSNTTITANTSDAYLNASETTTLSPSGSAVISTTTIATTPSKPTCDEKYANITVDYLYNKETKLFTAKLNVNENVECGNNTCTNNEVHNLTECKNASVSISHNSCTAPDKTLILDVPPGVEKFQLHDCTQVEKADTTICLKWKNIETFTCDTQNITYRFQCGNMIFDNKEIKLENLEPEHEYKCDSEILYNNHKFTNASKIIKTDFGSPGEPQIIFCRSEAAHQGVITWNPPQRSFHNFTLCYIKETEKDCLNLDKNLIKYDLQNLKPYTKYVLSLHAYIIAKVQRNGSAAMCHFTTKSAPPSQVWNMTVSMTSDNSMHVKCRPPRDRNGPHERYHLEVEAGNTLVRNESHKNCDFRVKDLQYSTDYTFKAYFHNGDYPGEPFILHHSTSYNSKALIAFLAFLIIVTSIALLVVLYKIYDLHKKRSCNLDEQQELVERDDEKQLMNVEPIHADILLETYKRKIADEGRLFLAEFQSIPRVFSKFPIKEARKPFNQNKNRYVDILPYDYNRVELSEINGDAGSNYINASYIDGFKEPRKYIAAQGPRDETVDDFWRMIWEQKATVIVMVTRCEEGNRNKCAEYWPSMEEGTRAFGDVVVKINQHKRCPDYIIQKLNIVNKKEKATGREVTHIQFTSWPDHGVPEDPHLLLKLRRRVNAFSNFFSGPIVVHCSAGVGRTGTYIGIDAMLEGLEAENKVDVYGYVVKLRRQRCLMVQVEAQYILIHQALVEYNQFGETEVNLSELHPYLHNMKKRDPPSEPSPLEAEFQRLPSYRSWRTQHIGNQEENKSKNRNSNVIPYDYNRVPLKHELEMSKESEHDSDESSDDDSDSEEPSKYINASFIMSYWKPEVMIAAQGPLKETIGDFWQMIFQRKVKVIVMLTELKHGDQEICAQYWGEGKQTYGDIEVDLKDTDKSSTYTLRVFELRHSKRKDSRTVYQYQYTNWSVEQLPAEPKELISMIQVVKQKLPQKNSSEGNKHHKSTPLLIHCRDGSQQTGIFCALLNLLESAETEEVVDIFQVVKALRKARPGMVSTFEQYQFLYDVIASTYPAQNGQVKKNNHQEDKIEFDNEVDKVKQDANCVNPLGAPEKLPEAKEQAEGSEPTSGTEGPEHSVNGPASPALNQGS
Several publications report Ki on Receptor-type tyrosine-protein phosphatase C (Homo sapiens, UniProt P08575); those values are gathered here.

- MOLECULE: "C=CCOC(=O)N[C@@H](Cc1ccc(N(C(=O)C(=O)O)c2ccccc2C(=O)O)cc1)C(=O)NCCCCOc1cccc(O)c1C(=O)OC"
  Ki: "> 200 µM"
- MOLECULE: "O=C(O)COc1c(C(=O)O)sc2c1sc1ccccc12"
  Ki: "> 1250 µM"
- MOLECULE: "CCc1cc(CC(NC(C)=O)C(=O)NCCCCC(=O)N[C@@H](CCSC)C(=O)O)ccc1N(C(=O)C(=O)O)c1ccccc1C(=O)O (stereo partly drawn)"
  Ki: "> 300 µM"
